# reported cell number; entries follow
System: HCC1569;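 further: TDF denotes transformed human dermal fibroblasts of mesenchymal origin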
Assay: cell number relative to DMSO (% of DMSO); higher = more cells (less growth inhibition / toxicity)
Details: concentration: 10 µM; 24 h
measured quantity: cell number

molecule="CN1CC(C(=O)NC2(C)OC3(O)C4CCCN4C(=O)C(Cc4ccccc4)N3C2=O)CC2c3cccc4[nH]cc(c34)CC21.CS(=O)(=O)O (configuration not stated) [Dihydroergotamine methanesulfonate]" subject_of_test=HCC1569 measured_quantity="cell number" experimental_result=102
molecule="O=C(O)C=CC(=O)O.O=[N+]([O-])c1ccc2nc(N3CCNCC3)ccc2c1 [Quipazine, 6-nitro-, maleate]" subject_of_test=HCC1569 measured_quantity="cell number" experimental_result=96.6
molecule="CN1C2CC(=O)CC1C(O)C2 (configuration not stated) [6-Hydroxytropinone]" subject_of_test=HCC1569 measured_quantity="cell number" experimental_result=103
molecule="CN(c1nc2ccccc2s1)C1CCN(CC(O)COc2ccc(F)c(F)c2)CC1.Cl.Cl (configuration not stated)" subject_of_test=HCC1569 measured_quantity="cell number" experimental_result=84.8
molecule="COC1C(O)C(C)OC(OC2CCC3(C=O)C(CCC4C3CCC3(C)C(C5=CC(=O)OC5)CCC43O)C2)C1O (configuration not stated) [Peruvoside]" subject_of_test=HCC1569 measured_quantity="cell number" experimental_result=52.3
molecule="CCC1CN2CCc3cc(OC)c(OC)cc3C2CC1CC1NCCc2cc(OC)c(OC)cc21.Cl.Cl (configuration not stated)" subject_of_test=HCC1569 measured_quantity="cell number" experimental_result=60
molecule=CC1=CC(=O)c2c(O)cccc2C1=O subject_of_test=HCC1569 measured_quantity="cell number" experimental_result=39
molecule=O=c1c2ccccc2[se]n1-c1ccccc1 subject_of_test=HCC1569 measured_quantity="cell number" experimental_result=102
molecule="CCCCCCC1C(=O)OC(C)C(NC(=O)c2cccc(NC=O)c2O)C(=O)OC(C)C1OC(=O)CC(C)C (configuration not stated) [Antimycin A1]" subject_of_test=HCC1569 measured_quantity="cell number" experimental_result=73.6
molecule=Cc1nccc2c1[nH]c1ccccc12 subject_of_test=HCC1569 measured_quantity="cell number" experimental_result=100
molecule="CCOC(=O)c1ncn2c1C1CCCN1C(=O)c1cc(OC)ccc1-2 (configuration not stated)" subject_of_test=HCC1569 measured_quantity="cell number" experimental_result=103
molecule="COc1cc2c(cc1O)CCNC2C (configuration not stated)" subject_of_test=HCC1569 measured_quantity="cell number" experimental_result=100
molecule="C=C1C(C)C2C(Cc3ccccc3)NC(=O)C23OC(=O)C=CC(O)CCCC(C)CC=CC3C1O (configuration not stated)" subject_of_test=HCC1569 measured_quantity="cell number" experimental_result=95.1
molecule="NC(=O)CN1CC(O)CC1=O (configuration not stated)" subject_of_test=HCC1569 measured_quantity="cell number" experimental_result=101
molecule="CN1CCC2(CCN3CCc4c(oc5ccccc45)C3C2)N(C)C1=O.Cl (configuration not stated)" subject_of_test=HCC1569 measured_quantity="cell number" experimental_result=102
molecule="CN1CCc2cc3c(cc2C1C1OC(=O)c2c1ccc1c2OCO1)OCO3 (single isomer, unassigned; (+)) [(+)-Bicuculline]" subject_of_test=HCC1569 measured_quantity="cell number" experimental_result=92.1
molecule="COc1cc(C2c3cc4c(cc3C(O)C3COC(=O)C23)OCO4)cc(OC)c1OC (configuration not stated)" subject_of_test=HCC1569 measured_quantity="cell number" experimental_result=58.3
